Measured values drawn from ChEMBL document CHEMBL4732187 for this set.

Listing of entries alongside the reported Papp A→B at 2 h, 1 µM.
- Assay Notes: Apparent permeability across apical to basolateral side in MDCK cells at 1 uM after 2 hrs by LC-MS/MS analysis
- Type: ADME, cell-based, Canis lupus familiaris
- Condition Label: dog

| Compound | Papp A→B at 2 h, 1 µM |
| --- | --- |
| COCCc1ccc(OCC(O)CNC(C)C)cc1 (configuration not stated) [METOPROLOL] | 26.9 ×10⁻⁶ cm/s |
| Cc1nn(-c2ccccn2)c2c1C(=O)CC(C)(C)C2Br (configuration not stated) | 20.1 ×10⁻⁶ cm/s |

* * *

- Assay Notes: Apparent permeability across basolateral to apical side in MDCK cells at 1 uM after 2 hrs by LC-MS/MS analysis
- Format: ADME, cell-based, Canis lupus familiaris
- Condition Label: dog

| Compound | Papp B→A at 2 h, 1 µM |
| --- | --- |
| Cc1nn(-c2ccccn2)c2c1C(=O)CC(C)(C)C2Br (configuration not stated) | 9.52 ×10⁻⁶ cm/s |
| COCCc1ccc(OCC(O)CNC(C)C)cc1 (configuration not stated) [METOPROLOL] | 21.2 ×10⁻⁶ cm/s |

* * *

- System Name: Cyclin-dependent kinase 2 (Homo sapiens, UniProt P24941)

| Compound | System Name | Endpoint Unit | Kd |
| --- | --- | --- | --- |
| Cc1nn(-c2nccs2)c2c1C(=O)CC(C)(C)C2Br (configuration not stated) | Cyclin-dependent kinase 2 (Homo sapiens, UniProt P24941) | µM | 4.8 |
| Cc1nn(-c2ccncn2)c2c1C(=O)CC(C)(C)C2Br (configuration not stated) | Cyclin-dependent kinase 2 (Homo sapiens, UniProt P24941) | µM | 4.5 |

* * *

- System Name: CDK2/Cyclin A2 (Homo sapiens, UniProt P24941)
- Assay Notes: Inhibition of human N-terminal GST-tagged CDK2 (1 to 298 residues)/Cyclin A (174 to 432 residues) expressed in Escherichia coli Turner (DE3) cells assessed as reduction in ADP formation using PKTPKKAKKL as substrate by resorufin dye based fluorescence assay
pIC50: −log10 of the molar value.
So basically: pIC50 at 4 or higher? That is Y. Lower than 4? That is N.

| Compound | Assigned Class |
| --- | --- |
| COC(=O)CC(=O)Nc1ccc(-n2nc(C)c3c2C(Br)C(C)(C)CC3=O)nc1 (stereo unspecified) | Y |
| Cc1nn(-c2ccccn2)c2c1C(=O)CC(C)(C)C2C (stereo unspecified) | N |
| Cc1ccc(-n2nc(C)c3c2C(Br)C(C)(C)CC3=O)nc1 (stereo unspecified) | Y |
| Cc1nn(-c2ccccn2)c2c1C(=O)CC(c1ccccc1)C2Br (stereo unspecified) | N |
| Cc1cccnc1-n1nc(C)c2c1CC(C)(C)C(Br)C2=O (stereo unspecified) | N |
| Cc1nn(-c2ccccn2)c2c1/C(=N/O)CC(C)(C)C2Br (stereo unspecified) | Y |
| Cc1nn(-c2ccccn2)c2c1C(=O)NCC(C)(C)C2Br (stereo unspecified) | Y |
| Cc1nn(-c2nccs2)c2c1C(=O)CC(C)(C)C2Br (stereo unspecified) | Y |

* * *

- System Name: Cyclin-dependent kinase 2/cyclin E1 (Homo sapiens, UniProt P24941)
- Assay Notes: Inhibition of CDK2/Cyclin E (unknown origin) using histone H1 as substrate preincubated for 20 mins followed by 33P-ATP addition and measured after 2 hrs by filter binding method
pIC50: −log10 of the molar value.
Listing of entries alongside the reported pIC50.
Endpoint Label: pIC50

| Compound | Reading |
| --- | --- |
| Cc1nn(-c2ccccn2)c2c1C(=O)CC(C)(C)C2Br (stereo not drawn) | 7.56 |
| Cc1nn(-c2ccncn2)c2c1C(=O)CC(C)(C)C2Br (stereo not drawn) | 8.05 |
| Cc1nn(-c2nccs2)c2c1C(=O)CC(C)(C)C2Br (stereo not drawn) | 8.64 |

* * *

- System Name: CDK2/Cyclin A2 (Homo sapiens, UniProt P24941)
- Assay Notes: Inhibition of human N-terminal GST-tagged CDK2 (1 to 298 residues)/Cyclin A (174 to 432 residues) expressed in Escherichia coli Turner (DE3) cells assessed as reduction in ADP formation using PKTPKKAKKL as substrate by resorufin dye based fluorescence assay
Endpoint Label: IC50

| Molecule | Endpoint Label | Reading |
| --- | --- | --- |
| Cc1nn(-c2ccccn2)c2c1C(=O)CCC2Br (centres undefined) | IC50 | 130 µM |
| Cc1nn(-c2cnccn2)c2c1C(=O)CC(C)(C)C2Br (centres undefined) | IC50 | 97 µM |
| Cc1nn(-c2ccccn2)c2c1C(=O)CC(C)(C)C2 | IC50 | 110 µM |
| Cc1nn(-c2ncccn2)c2c1C(=O)CC(C)(C)C2Br (centres undefined) | IC50 | 9.3 µM |

* * *

- System Name: CDK2/Cyclin A2 (Homo sapiens, UniProt P24941)
- Assay Notes: Inhibition of human N-terminal GST-tagged CDK2 (1 to 298 residues)/Cyclin A (174 to 432 residues) expressed in Escherichia coli Turner (DE3) cells assessed as reduction in ADP formation using PKTPKKAKKL as substrate by resorufin dye based fluorescence assay
Endpoint Label: IC50 (µM)

| Compound | Endpoint Unit | Reading |
| --- | --- | --- |
| Cc1nn(-c2ccccn2)c2c1C(=O)CC(C(C)C)C2Br (trans isomer) | µM | 130 |
| Cc1nn(-c2ccccn2)c2c1C(=O)CC(C)(C)C2S(=O)(=O)c1ccccc1 (stereo not drawn) | µM | 107 |
| Cc1nn(-c2ccccn2)c2c1C(=O)CC(C)(C)C2O (stereo not drawn) | µM | 110 |
